Entry source: PubChem BioAssay (Tox21)

- method-description: qHTS assay for small molecules that induce genotoxicity in human embryonic kidney cells expressing luciferase-tagged ATAD5 - cell viability (AID 651634); also: nearly all actives have a fitted effect of over 25% in size
- test-conditions: HEK293T ATAD5-luc cells viability, CellTiter-Fluor, 15.5 h; series mostly up to 83.3 µM
Inconclusive results are not listed. Active and inactive are the calls of the source. Calls follow the shape of the full dose curve.
Entry note: the call must match one of 1 for active, -1 for inactive

Tell me the recorded outcome of this test for `CNc1ccc([N+](=O)[O-])cc1` .
1

Tell me the recorded outcome of this test for `Cc1ccc(N/N=c2\c(=O)cc/c(=N\Nc3ccc(S(=O)(=O)O)cc3)c2=O)c(C)c1` .
1

Tell me the recorded outcome of this test for `Cc1cc(-c2ccc(N=Nc3cc(S(=O)(=O)O)c4ccccc4c3N)c(C)c2)ccc1N=Nc1cc(S(=O)(=O)O)c2ccccc2c1N` .
-1

Tell me the recorded outcome of this test for `CCCCCC/C=C\CCCCCCCC(=O)O` .
-1

Tell me the recorded outcome of this test for `C[C@@H](O)[C@H](N)C(=O)O` .
-1

Tell me the recorded outcome of this test for `CC(C)(C)c1csc(-c2cc3cc(OCc4ccccc4CC(=O)O)ccc3o2)n1` .
1

Tell me the recorded outcome of this test for `c1ccc(SSc2ccccc2)cc1` .
-1
